# experimental_target: TRIM25 CC-m2 (Homo sapiens, UniProt Q14258 189-379, K283A;K285A)
# Sequence (Q14258 189-379 K283A/K285A): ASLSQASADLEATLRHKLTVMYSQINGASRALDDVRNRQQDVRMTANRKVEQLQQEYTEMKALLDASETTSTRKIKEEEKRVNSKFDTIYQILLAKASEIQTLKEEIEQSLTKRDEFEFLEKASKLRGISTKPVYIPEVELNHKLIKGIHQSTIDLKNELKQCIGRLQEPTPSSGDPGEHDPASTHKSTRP
# method_description: ITC; enthalpy reduced about 10-fold; ITC: 20 mM MES pH 6.5, 75 mM NaCl, 0.5 mM TCEP, 20 C; protein NMR: 20 mM sodium phosphate pH 6.5, 150 mM NaCl, 2 mM TCEP, 293 K
# particulars: protein: recombinant; tags: His-Trx, cleaved (3C); chain copies: 2; hairpin
test_readout: Kd (µM)
Numbers only, in µM.

Kd reading for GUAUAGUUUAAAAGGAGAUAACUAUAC (structured_RNA) [pre-let-7a-1@2 (pre-let-7)] : 4
